- Tgt: ROCK1 (Homo sapiens, UniProt Q13464)
- Sequence (Q13464 whole entry, species assumed): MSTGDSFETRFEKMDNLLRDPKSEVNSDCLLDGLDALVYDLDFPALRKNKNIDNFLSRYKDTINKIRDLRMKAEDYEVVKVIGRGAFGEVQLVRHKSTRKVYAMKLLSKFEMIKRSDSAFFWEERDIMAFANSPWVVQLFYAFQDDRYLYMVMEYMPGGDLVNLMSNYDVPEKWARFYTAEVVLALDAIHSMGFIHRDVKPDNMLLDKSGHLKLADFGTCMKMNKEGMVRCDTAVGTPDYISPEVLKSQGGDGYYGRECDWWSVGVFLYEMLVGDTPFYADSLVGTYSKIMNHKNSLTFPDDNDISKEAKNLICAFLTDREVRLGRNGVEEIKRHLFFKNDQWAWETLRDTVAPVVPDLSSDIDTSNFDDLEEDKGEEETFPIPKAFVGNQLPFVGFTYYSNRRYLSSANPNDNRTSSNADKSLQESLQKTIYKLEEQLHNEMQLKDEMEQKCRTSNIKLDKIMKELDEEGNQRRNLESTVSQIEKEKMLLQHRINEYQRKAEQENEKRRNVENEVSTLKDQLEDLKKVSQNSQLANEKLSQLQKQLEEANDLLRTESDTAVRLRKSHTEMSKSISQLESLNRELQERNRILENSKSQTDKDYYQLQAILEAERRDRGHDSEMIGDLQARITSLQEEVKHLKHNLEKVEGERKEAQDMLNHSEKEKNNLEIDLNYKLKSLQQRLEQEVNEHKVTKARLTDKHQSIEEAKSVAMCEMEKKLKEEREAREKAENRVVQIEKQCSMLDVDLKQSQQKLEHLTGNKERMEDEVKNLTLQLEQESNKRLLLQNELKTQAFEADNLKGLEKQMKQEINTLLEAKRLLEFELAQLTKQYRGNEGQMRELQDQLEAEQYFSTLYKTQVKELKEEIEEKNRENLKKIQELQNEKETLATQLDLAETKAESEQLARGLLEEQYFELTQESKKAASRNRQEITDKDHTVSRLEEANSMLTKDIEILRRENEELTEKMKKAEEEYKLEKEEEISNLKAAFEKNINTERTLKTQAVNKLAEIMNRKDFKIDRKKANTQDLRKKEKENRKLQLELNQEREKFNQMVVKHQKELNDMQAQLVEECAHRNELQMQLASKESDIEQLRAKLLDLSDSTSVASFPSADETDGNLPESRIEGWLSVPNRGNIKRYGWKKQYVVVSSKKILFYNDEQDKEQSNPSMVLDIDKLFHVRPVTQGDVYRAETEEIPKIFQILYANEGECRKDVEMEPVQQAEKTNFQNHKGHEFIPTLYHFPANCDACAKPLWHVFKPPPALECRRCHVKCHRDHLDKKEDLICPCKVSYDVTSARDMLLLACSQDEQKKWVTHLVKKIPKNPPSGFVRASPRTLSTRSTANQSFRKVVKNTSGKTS
- Test Description: ROCK kinase inhibition assay, ROCK1 enzyme;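 further: kinase reaction with 0.5 µM final ATP, 75 min at room temperature, remaining ATP read by luminescence, percent of DMSO-only control minus background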
- Type: biochemical
- Test Context: ROCK1, Table 16
Measure Name: pKi
Please note pKi is a logarithmic value: minus log10 of concentration in mol/L. Answer with that number alone.

Memo: O=C(Nc1ccc2cnccc2c1)[C@@H]1C[C@H]1c1cccc(S(=O)(=O)Nc2ccccn2)c1 , reported pKi: 7.96

Sure, the documented pKi for O=C(Nc1ccc2cnccc2c1)[C@@H]1C[C@H]1c1ccc(S(=O)(=O)Nc2cccnc2)cc1 is 7.07

response.value for O=C(Nc1ccc2cnccc2c1)[C@@H]1C[C@H]1c1ccc(F)c(S(=O)(=O)Nc2ccccc2)c1 (field: pKi) = 6.82

Entry O=C(Nc1ccc2cnccc2c1)[C@@H]1C[C@H]1c1ccc(S(=O)(=O)NCC2CCNCC2)cc1 ; pKi = 8.05
